I'd be grateful if you could share measured T/C for these entries.
tested on: BDF1 mice, L1210 leukemia sc, survival T/C; assay: NCI In Vivo Anticancer Drug Screen. Data for tumor model L1210 Leukemia (subcutaneous) in B6D2F1 (BDF1) mice; conditions: endpoint: median survival time; dose: 300.0 mg/kg/injection; schedule: Q01DX Z (sc); vehicle: saline; higher = longer survival
Toxic doses and inconclusive results are not listed.

Reported T/C for COc1ccc2[nH]c3c(C)c4ccncc4c(C)c3c2c1 : what is it?
116 % of control

Now try O=C(O)c1cc(=O)[nH]c(=O)[nH]1 .
100 % of control

# repeat for CCOC(N)=O
100 % of control

Let us now turn to O=c1[nH]c(=O)n(C2CC(O)C(CO)O2)cc1Br (configuration not stated)
111 % of control

Now consider O=c1[nH]c(=O)n(C2OC(CO)C(O)C2O)cc1I (configuration not stated) .
100 % of control

Moving on to Cc1cc(N)c2cc(NC(=O)CCCCCCCCC(=O)Nc3ccc4nc(C)cc(N)c4c3)ccc2n1
91 % of control

Please give the result for Nc1cc(=O)[nH][nH]1 too.
100 % of control

###

Record form. Attribute: T/C. Fill in for each entry.
system: BDF1 mice, L1210 leukemia sc, survival T/C; experiment: NCI In Vivo Anticancer Drug Screen. Data for tumor model L1210 Leukemia (subcutaneous) in B6D2F1 (BDF1) mice; conditions: endpoint: median survival time; dose: 108.0 mg/kg/injection; schedule: Q01DX Z (sc); vehicle: other; higher = longer survival
Inconclusive results and toxic doses are left out.

Request the reported T/C associated with O=c1cnn(C2OC(CO)C(O)C2O)c(=O)[nH]1 (centres undefined)
120 % of control

What do you have for O=P1(N(CCCl)CCCl)NCCCO1 (centres undefined) ?
180 % of control

# iterate: O=c1[nH]cc(S)c(=O)[nH]1
110 % of control

Try the compound [I][Hg][CH2]C1COC([CH2][Hg][I])CO1 (centres undefined)
111 % of control

###

Could you please report measured T/C for the items listed next?
system: BDF1 mice, L1210 leukemia sc, survival T/C; test: NCI In Vivo Anticancer Drug Screen. Data for tumor model L1210 Leukemia (subcutaneous) in B6D2F1 (BDF1) mice; conditions: endpoint: median survival time; dose: 5.0 mg/kg/injection; schedule: Q01DX Z (sc); vehicle: methylcellulose (MC); higher = longer survival
Inconclusive results and toxic doses are left out.

Can you look up the measured T/C of C1OC1CN1CCC(C2CCN(CC3CO3)CC2)CC1 (stereo not drawn) for me?
109 % of control

Repeat for the following molecule: CN(C)c1ccc(/C=C/c2ccc3ccccc3[n+]2C)cc1
104 % of control

COc1cc([C@@H]2c3cc4c(cc3[C@H](O)[C@H]3COC(=O)[C@H]23)OCO4)cc(OC)c1OC , same question.
109 % of control

###

Can you tell me T/C for the items I'm about to list?
system: BDF1 mice, L1210 leukemia sc, survival T/C; assay: NCI In Vivo Anticancer Drug Screen. Data for tumor model L1210 Leukemia (subcutaneous) in B6D2F1 (BDF1) mice; conditions: endpoint: median survival time; dose: 180.0 mg/kg/injection; schedule: Q01DX Z (sc); vehicle: carboxymethylcellulose (CMC); higher = longer survival
Toxic doses and inconclusive results are not listed.

For the record COc1cc2c3c(c4ccc(OC)c(OC)c4c2cc1OC)CN1CCC[C@@H]1C3 , what value of T/C is listed for BDF1 mice, L1210 leukemia sc, survival T/C?
115 % of control

How about this molecule: CC(CNC(=O)CCOS(C)(=O)=O)NC(=O)CCOS(C)(=O)=O (stereo not given)
175 % of control

Quick one: CN(C)c1ccc(/C=C2\C=Cc3ccccc32)cc1
100 % of control

For Nc1ncc(N)c(N)n1 then?
100 % of control

And what about the molecule CN(C)N=Nc1ccc(CCCC(=O)NN)cc1 ?
113 % of control

Here is the next molecule: Nc1ccc(OC(=O)Oc2ccc(N)cc2)cc1
111 % of control

Follow-up item: O=C1C(NC(=O)C2CCCCC2)=C(N2CC2)C(=O)C(NC(=O)C2CCCCC2)=C1N1CC1
100 % of control

What do we get for Cc1c(O)ccc(=O)n1O ?
100 % of control

What would you report for CCCC(=O)OCC1OC(n2cnc3c(=S)nc(N)[nH]c32)C(OC(=O)CCC)C1OC(=O)CCC (stereo not given) ?
150 % of control

Check CN(C)CCNc1ccc([N+](=O)[O-])c2sc3ccccc3c(=O)c12 too.
111 % of control

###

System: BDF1 mice, L1210 leukemia sc, survival T/C
Assay: NCI In Vivo Anticancer Drug Screen. Data for tumor model L1210 Leukemia (subcutaneous) in B6D2F1 (BDF1) mice
Details: endpoint: median survival time; dose: 4.7 mg/kg/injection; schedule: Q01DX Z (sc); vehicle: saline
Procedure: The antitumor activity of compounds was measured in mice bearing transplantable tumors. Survival or tumor size were measured and the results are expressed as the measurement made in the treated group (T) divided by the measurement made in the vehicle treated control group (C). The tumor model used in this assay is L1210 Leukemia (subcutaneous) in B6D2F1 (BDF1) mice
Inconclusive results and toxic doses are left out. How the source made its calls: active means survival T/C of 150% or more; inactive means T/C below 125% in these data.
Answer with one of the outcomes given here: active, inactive

Tell me the assay call for S=P(N1CCCCCC1)(N1CC1)N1CC1 please.
inactive

Also, O=C(CCN1CC1)OCCOC(=O)CCN1CC1 please.
inactive

Query C=CC(CN1CC1)OC(C)=O (stereo not given) next
inactive

Again, but for C=CC(O)CN1CC1 (stereo not given)
active

Similarly, C=CC(COC(C)=O)N1CC1 (stereo not given) ?
inactive

###

test system: BDF1 mice, L1210 leukemia sc, survival T/C; experiment: NCI In Vivo Anticancer Drug Screen. Data for tumor model L1210 Leukemia (subcutaneous) in B6D2F1 (BDF1) mice; settings: endpoint: median survival time; dose: 5.0 mg/kg/injection; schedule: Q01DX001 (sc); vehicle: saline
Toxic doses and inconclusive results are not listed. Rule for the calls: active = survival T/C of 150% or more; inactive = T/C below 125% in these data.
A correct response names exactly one class from class 1 = active, class 0 = inactive

What classification did O=NN(CCCl)C(=O)NCCCl end up with in this test?
class 0

Would you kindly repeat that for CO[C@@]12[C@H](COC(N)=O)C3=C(C(=O)C(C)=C(N)C3=O)N1C[C@@H]1N[C@@H]12 ?
class 0

Try this compound too: CC1CC(C)(O)CC(C(O)CC2CC(=O)NC(=O)C2)C1=O (centres undefined)
class 0

// same read-out, input: NC(=O)N(CCCl)N=O
class 1

###

Exercise: for every item that follows, state its recorded T/C.
tested on: BDF1 mice, L1210 leukemia sc, survival T/C; assay: NCI In Vivo Anticancer Drug Screen. Data for tumor model L1210 Leukemia (subcutaneous) in B6D2F1 (BDF1) mice; details: endpoint: median survival time; dose: 39.0 mg/kg/injection; schedule: Q01DX Z (sc); vehicle: methylcellulose (MC); higher = longer survival
Inconclusive results and toxic doses are left out.

What T/C value was documented for this compound, Cn1c(O)c(N=NC(N)=S)c2ccccc21 ?
100 % of control

Likewise for ClCCn1c2ccccc2c2ccccc21 ?
100 % of control

Would you mind doing Nc1ncc(N)c(N)n1 as well?
100 % of control

Let us now turn to C[C@]12CCC(=O)C=C1CC[C@@H]1[C@@H]2C(=O)C[C@@]2(C)[C@H]1CC[C@]2(O)C(=O)CO
100 % of control

Try this compound next: OCC1OC(n2cnc3cc(Cl)c(Cl)cc32)C(O)C1O (configuration not stated)
95 % of control

Same for C[n+]1c2ccccc2nc2c(N)cc(N)cc21
105 % of control

Follow-up item: C[C@]12C=CC(=O)C=C1CC[C@@H]1[C@@H]2CC[C@]2(C)OC(=O)CC[C@@H]12
100 % of control

Moving on to Cn1cnc([N+](=O)[O-])c1Sc1ncnc2nc[nH]c12
100 % of control

Item: CS(=O)(=O)OCC(O)C(O)C(O)C(O)COS(C)(=O)=O (configuration not stated)
100 % of control

Entry CN=C(NC)c1ccc(NC(=O)c2ccc(C(=O)Nc3ccc(C(=NC)NC)cc3)c(Cl)c2)cc1 please
100 % of control

Entry to check: CC1(C)N=C(N)N=C(N)N1c1cccc(Br)c1
112 % of control

Also need COc1ccc(/C=N/NC(N)=S)cc1 , thanks.
95 % of control

###

test system: BDF1 mice, L1210 leukemia sc, survival T/C; assay: NCI In Vivo Anticancer Drug Screen. Data for tumor model L1210 Leukemia (subcutaneous) in B6D2F1 (BDF1) mice; settings: endpoint: median survival time; dose: 108.0 mg/kg/injection; schedule: Q01DX Z (sc); vehicle: water; higher = longer survival
Inconclusive results and toxic doses are left out.
QUANTITY: T/C

Notebook: pull reported T/C for BDF1 mice, L1210 leukemia sc, survival T/C, entry CCOC(=O)CCC(NC(=O)N(CCCl)CCCl)C(=O)OCC (configuration not stated)
112 % of control

Same question, O=C(Nc1ccc(C2=NCCN2)cc1)c1cccc(C(=O)Nc2ccc(C3=NCCN3)cc2)c1 this time
270 % of control

Also, CCCCC(C)(N)C(=O)O (configuration not stated) please.
100 % of control

Likewise for COc1ccc(/C=N/NC(N)=S)cc1 ?
100 % of control

Queued: CSc1ncnc2c1ncn2C1OC(CO)C(O)C1O (configuration not stated)
122 % of control

Again, but for CN(C)Nc1ncnc2nc[nH]c12
100 % of control

# iterate: CCN(CC)CCCC(C)Nc1c2ccc(Cl)cc2nc2ccc(OC)cc12 (configuration not stated)
95 % of control

The measured values listed here are drawn from PubChem BioAssay AID250.
